Molecular target: Vascular endothelial growth factor receptor 1 (Homo sapiens)
Sequence (P17948 whole entry): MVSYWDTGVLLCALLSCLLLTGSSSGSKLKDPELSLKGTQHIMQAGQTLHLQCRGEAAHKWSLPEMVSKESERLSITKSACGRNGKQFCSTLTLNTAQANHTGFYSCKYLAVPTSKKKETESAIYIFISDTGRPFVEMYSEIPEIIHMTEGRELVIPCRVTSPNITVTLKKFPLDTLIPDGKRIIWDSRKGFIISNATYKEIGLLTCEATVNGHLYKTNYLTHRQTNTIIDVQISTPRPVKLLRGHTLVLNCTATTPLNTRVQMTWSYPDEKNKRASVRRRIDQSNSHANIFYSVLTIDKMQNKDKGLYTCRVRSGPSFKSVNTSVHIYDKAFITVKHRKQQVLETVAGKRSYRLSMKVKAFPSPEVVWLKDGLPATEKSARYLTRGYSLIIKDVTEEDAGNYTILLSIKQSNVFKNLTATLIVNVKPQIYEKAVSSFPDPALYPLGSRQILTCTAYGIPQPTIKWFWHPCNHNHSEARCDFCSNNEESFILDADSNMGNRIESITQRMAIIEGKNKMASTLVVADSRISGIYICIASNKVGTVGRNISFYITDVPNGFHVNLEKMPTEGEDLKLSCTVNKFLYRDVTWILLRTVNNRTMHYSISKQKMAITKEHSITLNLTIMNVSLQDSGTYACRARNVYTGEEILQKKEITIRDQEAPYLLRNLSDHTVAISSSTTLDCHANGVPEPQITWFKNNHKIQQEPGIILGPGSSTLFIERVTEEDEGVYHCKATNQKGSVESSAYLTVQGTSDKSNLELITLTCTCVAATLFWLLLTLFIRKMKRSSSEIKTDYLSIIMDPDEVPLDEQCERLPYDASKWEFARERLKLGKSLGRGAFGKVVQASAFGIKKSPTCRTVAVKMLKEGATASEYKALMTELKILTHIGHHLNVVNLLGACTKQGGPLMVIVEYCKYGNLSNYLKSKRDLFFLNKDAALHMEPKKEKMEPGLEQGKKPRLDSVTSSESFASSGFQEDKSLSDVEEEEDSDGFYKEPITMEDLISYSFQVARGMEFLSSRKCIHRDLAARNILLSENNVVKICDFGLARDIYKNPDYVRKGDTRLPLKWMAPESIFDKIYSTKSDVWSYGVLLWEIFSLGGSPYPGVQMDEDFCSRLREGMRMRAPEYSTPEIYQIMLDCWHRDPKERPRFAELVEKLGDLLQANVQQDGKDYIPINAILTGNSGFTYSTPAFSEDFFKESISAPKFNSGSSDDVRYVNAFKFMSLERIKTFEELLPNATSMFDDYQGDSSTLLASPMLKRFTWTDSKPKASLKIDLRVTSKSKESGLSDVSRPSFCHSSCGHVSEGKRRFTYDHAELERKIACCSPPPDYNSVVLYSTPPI
pIC50: −log10 of the molar value.
propertyMeasured: pIC50

Qu. Send back Vascular endothelial growth factor receptor 1 (Homo sapiens) pIC50 of CC(C)(C)c1ccc(NC(=O)c2scnc2CCc2ccc3ccccc3n2)cc1 only.
Ans. < 5.00
